Values were extracted from ChEMBL document CHEMBL3244311.

- System: Rattus norvegicus
- assay.text: Antipsychotic activity in ip dosed Sprague-Dawley rat assessed as protection against epinephrine-induced mortality administered 1 hr prior to epinephrine-challenge measured up to 24 hrs
- Assay type: functional
quantity.name: ED50 (mg/kg)

1) COc1ccc([C@@]2(O)CCN3C[C@@H]4c5ccccc5CCc5cccc(c54)[C@H]3C2)cc1.Cl (racemic)
13.2
2) Cl.O[C@]1(c2cccnc2)CCN2C[C@@H]3c4ccccc4CCc4cccc(c43)[C@H]2C1 (racemic)
4.7
3) Cl.O[C@]1(c2cccs2)CCN2C[C@@H]3c4ccccc4CCc4cccc(c43)[C@H]2C1 (racemic)
22
4) Cl.O[C@]1(c2cccc(F)c2)CCN2C[C@@H]3c4ccccc4CCc4cccc(c43)[C@H]2C1 (racemic)
14.3
5) Cl.O[C@]1(c2ccsc2)CCN2C[C@@H]3c4ccccc4CCc4cccc(c43)[C@H]2C1 (racemic)
90
6) COc1cccc([C@@]2(O)CCN3C[C@@H]4c5ccccc5CCc5cccc(c54)[C@H]3C2)c1.Cl (racemic)
2.7
7) Cl.O[C@]1(c2ccccc2Cl)CCN2C[C@@H]3c4ccccc4CCc4cccc(c43)[C@H]2C1 (racemic)
11
